molecular target: D(1A) dopamine receptor (Rattus norvegicus, UniProt P18901); experiment: Dopamine agonist (Dopamine receptor D1) activity was measured as increase in cAMP formation relative to maximum increase in dopamine-sensitive adenylate cyclase
Sequence (P18901 whole entry): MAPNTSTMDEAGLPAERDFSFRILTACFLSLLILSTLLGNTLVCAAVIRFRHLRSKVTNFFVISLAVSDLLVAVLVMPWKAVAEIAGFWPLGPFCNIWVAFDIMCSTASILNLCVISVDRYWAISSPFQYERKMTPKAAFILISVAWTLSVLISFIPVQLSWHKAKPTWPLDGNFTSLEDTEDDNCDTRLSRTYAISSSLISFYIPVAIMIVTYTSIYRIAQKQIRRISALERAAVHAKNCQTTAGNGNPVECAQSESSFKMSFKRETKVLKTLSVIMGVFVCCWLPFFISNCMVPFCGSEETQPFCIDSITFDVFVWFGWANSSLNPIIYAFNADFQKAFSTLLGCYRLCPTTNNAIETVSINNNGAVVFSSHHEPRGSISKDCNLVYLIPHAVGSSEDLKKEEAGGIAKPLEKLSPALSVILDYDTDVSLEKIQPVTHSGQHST
endpoint.label: EC50 (nM)

Illustrative cases are given below, each with its answer.
compound | system.name | unit.annotation | obs.value
C=CCN1CCc2c(cc(O)c(O)c2F)C(c2ccc(O)cc2)C1.CS(=O)(=O)O (stereo not given) | D(1A) dopamine receptor (Rattus norvegicus, UniProt P18901) | nM | 100
C=CCN1CCc2c(cc(O)c(O)c2Cl)C(c2ccc(O)cc2)C1.CS(=O)(=O)O (stereo not given) | D(1A) dopamine receptor (Rattus norvegicus, UniProt P18901) | nM | 15
Br.C=CCN1CCc2cc(O)c(O)cc2C(c2ccc(O)cc2)C1 (stereo not given) | D(1A) dopamine receptor (Rattus norvegicus, UniProt P18901) | nM | 400

I. C=CCN1CCc2c(cc(O)c(O)c2Br)C(c2ccc(O)cc2)C1.CS(=O)(=O)O (stereo not given)
II. C=CCN1CCc2c(cc(O)c(O)c2C)C(c2ccc(O)cc2)C1.Cl (stereo not given)
Query: Record comparison, field EC50: mark the lower of I and II . Answer by stating the label of the chosen item.
Result: I
(I: 50 nM, II: 400 nM)

---

target: D(2) dopamine receptor (Homo sapiens); experiment: Dopamine receptor D2 agonist activity was determined for inhibition of release of NE in an isolated perfused rabbit ear artery preparation
endpoint.label: pEC50
Recall that pEC50 is obtained by taking minus log10 of the concentration measured in molar.

Sample C=CCN1CCc2c(cc(O)c(O)c2Cl)C(c2ccc(O)cc2)C1.CS(=O)(=O)O (stereo unspecified) ; pEC50 observed: 6.91

---

molecular target: D(2) dopamine receptor (Homo sapiens, UniProt P14416); assay: Dopamine receptor D2 agonist activity was determined for inhibition of the constrictor response to electrical stimulation in an isolated perfused rabbit ear artery preparation; type: functional, Oryctolagus cuniculus; conditions: target entry is the homologue from another species
Sequence (P14416 whole entry, the tested form may be a part): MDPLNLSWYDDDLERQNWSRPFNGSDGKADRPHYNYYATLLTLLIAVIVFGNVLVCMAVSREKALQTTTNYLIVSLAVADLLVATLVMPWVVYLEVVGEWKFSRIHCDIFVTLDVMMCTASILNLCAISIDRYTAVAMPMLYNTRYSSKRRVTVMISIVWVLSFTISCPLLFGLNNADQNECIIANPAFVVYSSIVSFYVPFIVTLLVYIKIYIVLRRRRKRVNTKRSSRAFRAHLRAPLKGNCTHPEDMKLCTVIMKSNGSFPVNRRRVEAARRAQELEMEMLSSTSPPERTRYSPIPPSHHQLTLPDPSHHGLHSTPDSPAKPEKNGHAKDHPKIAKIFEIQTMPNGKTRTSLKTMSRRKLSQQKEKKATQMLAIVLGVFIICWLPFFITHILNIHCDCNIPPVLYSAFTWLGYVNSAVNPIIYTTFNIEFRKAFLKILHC
pEC50: −log10 of the molar value.
endpoint.label: pEC50

molecule | system.name | endpoint.label | obs.value
C=CCN1CCc2c(cc(O)c(O)c2Br)C(c2ccc(O)cc2)C1.CS(=O)(=O)O (centres undefined) | D(2) dopamine receptor (Homo sapiens, UniProt P14416) | pEC50 | 6.76

A. Br.C=CCN1CCc2cc(O)c(O)cc2C(c2ccc(O)cc2)C1 (centres undefined)
B. C=CCN1CCc2c(cc(O)c(O)c2F)C(c2ccc(O)cc2)C1.CS(=O)(=O)O (centres undefined)
Query: Hi, I'm comparing A with B and wondering which one has the bigger number for pEC50. Any idea? Answer by stating the label of the chosen item.
Result: B
